read-out: CD40, CD40 (gene 958); assay: BSK_LPS_CD40: BioMAP Diversity Plus: LPS Assay for CD40 Biomarker Activity (AID 2283076); details: primary human HUVEC with PBMC; actives raise or lower the signal
Calls of active or inactive are those of the source. Rule for the calls: active = hit-call score of the fitted dose curve at least 0.9, where 1 is the maximum; inactive = score below 0.9.
Respond using exactly one of the listed classes: yes (1) = active, no (0) = inactive

Solved cases (3 shown):
molecule	label
CCCN(CCC)c1c([N+](=O)[O-])cc(S(N)(=O)=O)cc1[N+](=O)[O-]	yes (1)
CCNc1nc(Cl)nc(NCC)n1	no (0)
CCOc1cc(Oc2ccc(C(F)(F)F)cc2Cl)ccc1[N+](=O)[O-]	no (0)

Hello, I am checking results. What call was entered for "CNC(=O)ON=CC(C)(C)SC" ?
no (0)

Hello, I am checking results. What call was entered for "COc1nc(C)nc(NC(=O)NS(=O)(=O)c2ccccc2Cl)n1" ?
no (0)

Hello, I am checking results. What call was entered for C=CC1(C)OC(=O)N(c2cc(Cl)cc(Cl)c2)C1=O (stereo not drawn) ?
no (0)

###

read-out: urokinase plasminogen activator (uPA), PLAU (gene 5328); assay: BSK_KF3CT_uPA: BioMAP Diversity Plus: KF3CT Assay for urokinase plasminogen activator (uPA) Biomarker Activity (AID 2283075); details: primary human keratinocytes with fibroblasts; actives raise or lower the signal
Activity calls are given as the source filed them. Rule for the calls: active = hit-call score of the fitted dose curve at least 0.9, where 1 is the maximum; inactive = score below 0.9.
Respond using exactly one of the listed classes: active, inactive

compound	label
Cc1cc(Cl)ccc1OCC(=O)O	inactive
CON(C)C(=O)Nc1ccc(Cl)c(Cl)c1	inactive
N#Cc1cc(Br)c(O)c(Br)c1	inactive
N#CC(CCc1ccc(Cl)cc1)(Cn1cncn1)c1ccccc1 (configuration not stated)	inactive
C=CCC1=C(C)[C@@H](OC(=O)[C@@H]2[C@@H](C=C(C)C)C2(C)C)CC1=O	inactive
C#CCOS(=O)OC1CCCCC1Oc1ccc(C(C)(C)C)cc1 (configuration not stated)	active
Oc1ccccc1-c1ccccc1	inactive
CNC(=O)ON=CC(C)(C)SC	inactive

Hello, I am checking results. What call was entered for "CS/C(C)=N/OC(=O)N(C)SN(C)C(=O)O/N=C(\C)SC" ?
active

###

experiment: CCTE_Shafer_MEA_acute_burst_percentage_std: CCTE's Neural Acute Assay for Standard Deviation of Burst Percentage, Shafer Lab (AID 2284018);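 note: fitted in the negative direction so actives lower burst percentage SD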
Activity calls are given as the source filed them. Rule for the calls: active = hit-call score of the fitted dose curve at least 0.9, where 1 is the maximum; inactive = score below 0.9.
Respond using exactly one of the listed classes: true (1) (active), false (0) (inactive)

Solved cases (10 shown):
molecule	label
COC(=O)N(OC)c1ccccc1COc1ccn(-c2ccc(Cl)cc2)n1	true (1)
CCNc1nc(Cl)nc(NC(C)C)n1	false (0)
COc1ccc(C(c2ccc(OC)cc2)C(Cl)(Cl)Cl)cc1	false (0)
CC(C)Oc1cc(-n2nc(C(C)(C)C)oc2=O)c(Cl)cc1Cl	false (0)
CS/C(C)=N/OC(=O)N(C)SN(C)C(=O)O/N=C(\C)SC	false (0)
CCCN(CCC)c1c([N+](=O)[O-])cc(S(N)(=O)=O)cc1[N+](=O)[O-]	false (0)
C=CCC1=C(C)C(OC(=O)C2C(C=C(C)C)C2(C)C)CC1=O (stereo unspecified)	false (0)
CC(C)(C)c1ccc(CSc2cnn(C(C)(C)C)c(=O)c2Cl)cc1	false (0)
CC1COC(Cn2cncn2)(c2ccc(Oc3ccc(Cl)cc3)cc2Cl)O1 (stereo unspecified)	true (1)
Cc1ccc(-c2c(Cl)nc(C#N)n2S(=O)(=O)N(C)C)cc1	false (0)

Hello, I am checking results. What call was entered for "CCCCNC(=O)OCC#CI" ?
false (0)

###

assay: CEETOX_H295R_DOC: CeeTox H295R High-throughput Steroidogenesis Assay for DOC (AID 2283439); details: actives raise or lower the signal
Calls of active or inactive are those of the source. The calls were made as follows: active = hit-call score of the fitted dose curve at least 0.9, where 1 is the maximum; inactive = score below 0.9.
measurement.label: AC50

For orientation, consider the following solved cases.
molecule	AC50
CCOc1cc(Oc2ccc(C(F)(F)F)cc2Cl)ccc1[N+](=O)[O-]	inactive
C=CCC1=C(C)C(OC(=O)C2C(C=C(C)C)C2(C)C)CC1=O (configuration not stated)	inactive
CCNc1nc(Cl)nc(NCC)n1	inactive
COc1nc(NC(C)C)nc(NC(C)C)n1	inactive
Cc1cc(Cl)ccc1OCC(=O)O	inactive

AC50 lookup needed for C=CC1(C)OC(=O)N(c2cc(Cl)cc(Cl)c2)C1=O (configuration not stated) , thanks.
11.3 µM (active)

AC50 lookup needed for "CNC(=S)S" , thanks.
inactive

AC50 lookup needed for "CC(C)Oc1cc(-n2nc(C(C)(C)C)oc2=O)c(Cl)cc1Cl" , thanks.
inactive

AC50 lookup needed for CC1COC(Cn2cncn2)(c2ccc(Oc3ccc(Cl)cc3)cc2Cl)O1 (configuration not stated) , thanks.
0.334 µM (active)

###

Read-out: Cytochrome P450 7A1 (Homo sapiens)
Experiment: LTEA_HepaRG_CYP7A1: Life Technologies and Expression Analysis (LTEA) Assay for Cytochrome P450 7A1 (CYP7A1) using HepaRG (AID 2283496)
Conditions: mRNA level, 48 h; actives raise or lower the signal
Experimental: LTEA_HepaRG is a cell based, multiplexed-readout assay that uses HepaRG, a human liver cell line, with measurements taken at 48 hours after chemical dosing on a 96-well plate.LTEA_HepaRG_CYP7A1 is one of 102 assay component(s) measured in the LTEA HepaRG cell culture assay. It is a marker of NR mediated metabolism.Data from the assay component LTEA_HepaRG_CYP7A1 was analyzed into 1 endpoint. […]
Activity calls are given as the source filed them. The calls were made as follows: active = hit-call score of the fitted dose curve at least 0.9, where 1 is the maximum; inactive = score below 0.9.
Respond using exactly one of the listed classes: y = active, n = inactive

molecule	label
COP(=S)(OC)Oc1nc(Cl)c(Cl)cc1Cl	n
COc1ccc(C(c2ccc(OC)cc2)C(Cl)(Cl)Cl)cc1	y
CCNc1nc(Cl)nc(NCC)n1	n
CS/C(C)=N/OC(=O)N(C)SN(C)C(=O)O/N=C(\C)SC	y
CCOP(=S)(OCC)SCn1c(=O)oc2cc(Cl)ccc21	n
CC(Oc1ccc(Cl)cc1Cl)C(=O)O (configuration not stated)	n

For the next question, use this molecule.
Hello, I am checking results. What call was entered for "CCc1nn(C)c(C(=O)NCc2ccc(C(C)(C)C)cc2)c1Cl" ?
y

###

read-out: succinate dehydrogenase complex iron sulfur subunit B (SDHB), SDHB (gene 6390); assay: LTEA_HepaRG_SDHB: Life Technologies and Expression Analysis (LTEA) Assay for succinate dehydrogenase complex iron sulfur subunit B (SDHB) using HepaRG (AID 2283528); details: mRNA level, 48 h; actives raise or lower the signal
Active and inactive are the calls of the source. Rule for the calls: active = hit-call score of the fitted dose curve at least 0.9, where 1 is the maximum; inactive = score below 0.9.
Respond using exactly one of the listed classes: 1.0 for active, 0.0 for inactive

compound	label
Cc1cc(Cl)ccc1OCC(=O)O	0.0
CC1=C(C(=O)Nc2ccccc2)SCCO1	0.0
Cc1c(F)c(F)c(COC(=O)C2C(/C=C(\Cl)C(F)(F)F)C2(C)C)c(F)c1F (configuration not stated)	0.0
OC(c1ccc(Cl)cc1)(c1cncnc1)c1ccccc1Cl (configuration not stated)	0.0
CCOC(=O)C(Cl)Cc1cc(-n2nc(C)n(C(F)F)c2=O)c(F)cc1Cl (configuration not stated)	0.0

Hello, I am checking results. What call was entered for CC1COC(Cn2cncn2)(c2ccc(Oc3ccc(Cl)cc3)cc2Cl)O1 (configuration not stated) ?
1.0

Hello, I am checking results. What call was entered for COC(=O)C(C)Oc1ccc(Oc2ccc(Cl)cc2Cl)cc1 (configuration not stated) ?
0.0

Hello, I am checking results. What call was entered for "CCc1nn(C)c(C(=O)NCc2ccc(C(C)(C)C)cc2)c1Cl" ?
0.0

Hello, I am checking results. What call was entered for "COc1ccc(C(c2ccc(OC)cc2)C(Cl)(Cl)Cl)cc1" ?
1.0

Hello, I am checking results. What call was entered for CCOC(=O)CC(SP(=S)(OC)OC)C(=O)OCC (configuration not stated) ?
0.0

Hello, I am checking results. What call was entered for "COC(=O)c1ccccc1C(=O)OC" ?
0.0

Hello, I am checking results. What call was entered for "CCCCOC(=O)c1ccccc1C(=O)OCCCC" ?
0.0

Hello, I am checking results. What call was entered for C#CCOS(=O)OC1CCCCC1Oc1ccc(C(C)(C)C)cc1 (configuration not stated) ?
1.0

Hello, I am checking results. What call was entered for "CCOc1cc(Oc2ccc(C(F)(F)F)cc2Cl)ccc1[N+](=O)[O-]" ?
0.0

###

target: zebrafish Thyroid Hormone Receptor alpha (TRa), thraa (gene 30670) (UniProt Q98867); assay: ATG_zfTRa_XSP2: Attagene TRANS-FACTORIAL Multi-Species (XSP1) HepG2 Assay for zebrafish Thyroid Hormone Receptor alpha (TRa) (AID 2283832);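 note: actives raise zebrafish TRa-Gal4 reporter transcript above DMSO baseline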
Sequence (Q98867 whole entry, looked up, the tested form may be a part): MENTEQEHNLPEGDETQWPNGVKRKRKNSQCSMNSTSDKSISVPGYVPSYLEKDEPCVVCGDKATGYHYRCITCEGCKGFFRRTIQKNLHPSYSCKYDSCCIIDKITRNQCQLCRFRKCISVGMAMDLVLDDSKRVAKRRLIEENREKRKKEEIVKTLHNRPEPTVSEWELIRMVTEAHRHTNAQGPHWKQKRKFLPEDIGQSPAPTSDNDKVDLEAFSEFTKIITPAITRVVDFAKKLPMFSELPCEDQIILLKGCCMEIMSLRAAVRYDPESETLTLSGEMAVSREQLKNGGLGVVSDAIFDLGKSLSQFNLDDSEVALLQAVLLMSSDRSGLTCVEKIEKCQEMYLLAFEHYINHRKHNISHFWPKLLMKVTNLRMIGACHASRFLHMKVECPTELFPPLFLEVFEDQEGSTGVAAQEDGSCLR
Inconclusive results are not listed. Activity calls are given as the source filed them. The calls were made as follows: active = hit-call score of the fitted dose curve at least 0.9, where 1 is the maximum; inconclusive = response in the unintended direction; inactive = score below 0.9.
Respond using exactly one of the listed classes: active, inactive

Solved cases (5 shown):
compound	experimental.system	label
CCCCNC(=O)OCC#CI	zebrafish Thyroid Hormone Receptor alpha (TRa), thraa (gene 30670) (UniProt Q98867)	inactive
CCCCC(CC)COC(=O)c1ccccc1C(=O)OCC(CC)CCCC (centres undefined)	zebrafish Thyroid Hormone Receptor alpha (TRa), thraa (gene 30670) (UniProt Q98867)	inactive
OC(c1ccc(Cl)cc1)(c1cncnc1)c1ccccc1Cl (centres undefined)	zebrafish Thyroid Hormone Receptor alpha (TRa), thraa (gene 30670) (UniProt Q98867)	inactive
C#CCOS(=O)OC1CCCCC1Oc1ccc(C(C)(C)C)cc1 (centres undefined)	zebrafish Thyroid Hormone Receptor alpha (TRa), thraa (gene 30670) (UniProt Q98867)	active
CO/C=C(/C(=O)OC)c1ccccc1Oc1cc(Oc2ccccc2C#N)ncn1	zebrafish Thyroid Hormone Receptor alpha (TRa), thraa (gene 30670) (UniProt Q98867)	inactive

Hello, I am checking results. What call was entered for "COc1ccc(C(c2ccc(OC)cc2)C(Cl)(Cl)Cl)cc1" ?
inactive

Hello, I am checking results. What call was entered for "COP(=S)(OC)Oc1nc(Cl)c(Cl)cc1Cl" ?
inactive

Hello, I am checking results. What call was entered for "CCCN(CCC)c1c([N+](=O)[O-])cc(S(N)(=O)=O)cc1[N+](=O)[O-]" ?
active

Hello, I am checking results. What call was entered for "CC(C)(C)c1ccc(CSc2cnn(C(C)(C)C)c(=O)c2Cl)cc1" ?
inactive
